- SYSTEM: Histone acetyltransferase KAT2B (Homo sapiens, UniProt Q92831)
- Sequence (Q92831 whole entry, the tested form may be a part): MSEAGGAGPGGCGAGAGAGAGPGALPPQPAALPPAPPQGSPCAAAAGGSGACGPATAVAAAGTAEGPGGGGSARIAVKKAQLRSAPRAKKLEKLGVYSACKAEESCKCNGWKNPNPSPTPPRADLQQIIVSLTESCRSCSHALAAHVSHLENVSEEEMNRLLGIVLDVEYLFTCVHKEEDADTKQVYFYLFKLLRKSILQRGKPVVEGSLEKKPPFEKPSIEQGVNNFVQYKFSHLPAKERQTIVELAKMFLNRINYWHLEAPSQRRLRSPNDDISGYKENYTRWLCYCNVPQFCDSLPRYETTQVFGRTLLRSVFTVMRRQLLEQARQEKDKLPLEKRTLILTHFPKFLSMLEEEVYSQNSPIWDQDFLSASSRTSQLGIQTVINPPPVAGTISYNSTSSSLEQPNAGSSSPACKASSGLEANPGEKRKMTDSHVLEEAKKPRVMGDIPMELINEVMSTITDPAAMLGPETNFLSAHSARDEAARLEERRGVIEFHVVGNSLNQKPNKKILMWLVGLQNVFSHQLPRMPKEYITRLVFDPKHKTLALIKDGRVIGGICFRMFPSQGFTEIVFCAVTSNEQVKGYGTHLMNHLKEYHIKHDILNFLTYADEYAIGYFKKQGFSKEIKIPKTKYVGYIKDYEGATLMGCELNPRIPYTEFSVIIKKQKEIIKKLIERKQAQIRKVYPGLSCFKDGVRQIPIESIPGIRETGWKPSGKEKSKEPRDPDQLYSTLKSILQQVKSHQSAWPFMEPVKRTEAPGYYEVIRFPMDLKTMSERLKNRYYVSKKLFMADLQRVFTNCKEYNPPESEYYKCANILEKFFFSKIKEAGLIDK
- EXPERIMENTAL PROTOCOL: Inhibition of recombinant human KAT2B catalytic domain using biotinylated histone H3 (1 to 21 amino acid residues) as substrate preincubated for 10 mins followed by acetyl-CoA addition measured after 10 mins by time resolved fluorescence assay
MEASURED METRIC: IC50 (µM)

Observe how each entry below is paired with its result.
[[record]]
record_smiles = "CCOC(=O)Cn1sc2nc(C)cc(C)c2c1=O"
system = "Histone acetyltransferase KAT2B (Homo sapiens, UniProt Q92831)"
units_label = "µM"
test_result = 13.6

[[record]]
record_smiles = "CC(C)CNC(=O)Cn1sc2ccccc2c1=O"
system = "Histone acetyltransferase KAT2B (Homo sapiens, UniProt Q92831)"
units_label = "µM"
test_result = 10.7

[[record]]
record_smiles = "O=c1c2cccnc2sn1-c1ccc(F)cc1"
system = "Histone acetyltransferase KAT2B (Homo sapiens, UniProt Q92831)"
units_label = "µM"
test_result = 9.74

[[record]]
record_smiles = "Cc1ccnc(-n2sc3ccccc3c2=O)n1"
system = "Histone acetyltransferase KAT2B (Homo sapiens, UniProt Q92831)"
units_label = "µM"
test_result = 13.6

[[record]]
record_smiles = "Cc1cc(C)c2c(=O)n(C(=O)c3cccs3)sc2n1"
system = "Histone acetyltransferase KAT2B (Homo sapiens, UniProt Q92831)"
units_label = "µM"
test_result = 9.3


I: CCOC(=O)c1ccc(-n2sc3ccccc3c2=O)cc1
II: COCCNC(=O)Cn1sc2ccccc2c1=O
III: CC(C)CNC(=O)CCn1sc2ccccc2c1=O
# input Arrange these 3 molecules in increasing order of IC50. Write the labels in rank order as requested.
# output I, II, III
(I: 6.95 µM, II: 11.8 µM, III: 41.8 µM)

* * *

- SYSTEM: Histone acetyltransferase KAT2A (Homo sapiens)
- EXPERIMENTAL PROTOCOL: Inhibition of recombinant human KAT2A using biotinylated histone H3 (1 to 21 amino acid residues) as substrate preincubated for 10 mins followed by acetyl-CoA addition measured after 10 mins by time resolved fluorescence assay
- Sequence (Q92830 whole entry, the tested form may be a part): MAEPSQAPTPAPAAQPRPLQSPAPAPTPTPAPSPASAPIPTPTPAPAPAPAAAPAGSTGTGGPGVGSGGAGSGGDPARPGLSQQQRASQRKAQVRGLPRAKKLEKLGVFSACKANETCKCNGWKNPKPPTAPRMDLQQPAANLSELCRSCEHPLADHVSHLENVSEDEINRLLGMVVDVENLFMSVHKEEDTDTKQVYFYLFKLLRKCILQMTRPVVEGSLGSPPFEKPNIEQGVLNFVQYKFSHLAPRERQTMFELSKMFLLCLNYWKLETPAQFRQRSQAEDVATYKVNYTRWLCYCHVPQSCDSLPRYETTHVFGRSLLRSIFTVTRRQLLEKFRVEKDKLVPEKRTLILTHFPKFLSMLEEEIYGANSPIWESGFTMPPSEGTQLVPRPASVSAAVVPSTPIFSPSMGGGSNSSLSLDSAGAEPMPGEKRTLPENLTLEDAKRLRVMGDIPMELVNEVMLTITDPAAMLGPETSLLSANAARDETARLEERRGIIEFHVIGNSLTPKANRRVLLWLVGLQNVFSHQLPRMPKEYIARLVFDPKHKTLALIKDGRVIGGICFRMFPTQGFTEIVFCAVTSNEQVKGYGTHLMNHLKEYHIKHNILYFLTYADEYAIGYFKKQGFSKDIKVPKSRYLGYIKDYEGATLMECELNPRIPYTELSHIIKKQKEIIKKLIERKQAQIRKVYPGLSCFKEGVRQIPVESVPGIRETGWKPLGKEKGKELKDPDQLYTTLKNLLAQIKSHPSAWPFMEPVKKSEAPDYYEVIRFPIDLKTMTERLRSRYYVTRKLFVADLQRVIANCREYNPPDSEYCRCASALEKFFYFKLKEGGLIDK
MEASURED METRIC: IC50 (µM)

Study these solved cases before continuing.
[[record]]
record_smiles = "O=C(Cn1sc2ccccc2c1=O)Nc1nccs1"
system = "Histone acetyltransferase KAT2A (Homo sapiens)"
test_result = 21.7

[[record]]
record_smiles = "O=c1c2ccccc2sn1-c1ccc(S(=O)(=O)N2CCCC2)cc1"
system = "Histone acetyltransferase KAT2A (Homo sapiens)"
test_result = 6.27

[[record]]
record_smiles = "O=c1c2ccccc2sn1-c1nccs1"
system = "Histone acetyltransferase KAT2A (Homo sapiens)"
test_result = 7.87

[[record]]
record_smiles = "CCCCc1ccc(-n2sc3ncc(-c4ccccc4)cc3c2=O)cc1"
system = "Histone acetyltransferase KAT2A (Homo sapiens)"
test_result = 8.65

[[record]]
record_smiles = "COCCNC(=O)Cn1sc2ccccc2c1=O"
system = "Histone acetyltransferase KAT2A (Homo sapiens)"
test_result = 15.5

[[record]]
record_smiles = "CC(C)CNC(=O)CCn1sc2ccccc2c1=O"
system = "Histone acetyltransferase KAT2A (Homo sapiens)"
test_result = 34.9

[[record]]
record_smiles = "CC(C)CNC(=O)Cn1sc2ccccc2c1=O"
system = "Histone acetyltransferase KAT2A (Homo sapiens)"
test_result = 20.8

[[record]]
record_smiles = "O=c1c2cccnc2sn1-c1ccc(Cl)cc1"
system = "Histone acetyltransferase KAT2A (Homo sapiens)"
test_result = 15.5


P: O=c1c2cc([N+](=O)[O-])cnc2sn1-c1ccc(Oc2ccccc2)cc1
Q: Cc1ccnc(-n2sc3ccccc3c2=O)n1
R: O=C(O)CCCn1sc2ccccc2c1=O
S: O=c1c2cccnc2sn1-c1ccc(F)cc1
# input Endpoint returns the given compounds ordered by ascending IC50. Field: ranking. Enter the labels in the order requested.
# output P, S, Q, R

P: O=c1c2cccnc2sn1Cc1ccc(C(F)(F)F)cc1
Q: CCOC(=O)c1ccc(-n2sc3ccccc3c2=O)cc1
# input Thinking about recorded IC50 values, which is higher, P or Q ? Give the label of your selection.
# output P

P: O=c1c2cccnc2sn1Cc1ccc(Cl)c(Cl)c1
Q: Cc1csc(-n2sc3ccccc3c2=O)n1
# input Select one. Lower IC50: P or Q // output: label of the selected item
# output Q

P: CCOC(=O)Cn1sc2nc(C)cc(C)c2c1=O
Q: O=c1c2ccccc2sn1-c1nc2ccccc2s1
# input Could you tell me which of P and Q has the lower IC50 reading? # answer = label of selected item
# output P

I: Cc1cc(C)c2c(=O)n(C(=O)c3cccs3)sc2n1
II: O=C(Cn1sc2ccccc2c1=O)NCc1ccccn1
# input Could you point out whether the larger IC50 belongs to I or to II ? Lab note: record the label of whichever item you select.
# output II

* * *

- SYSTEM: UniProt Q92830
- EXPERIMENTAL PROTOCOL: Inhibition of recombinant human KAT2A using biotinylated histone H3 (1 to 21 amino acid residues) as substrate at 50 uM preincubated for 10 mins followed by acetyl-CoA addition measured after 10 mins by time resolved fluorescence assay
- Sequence (Q92830 2-837 limits assumed): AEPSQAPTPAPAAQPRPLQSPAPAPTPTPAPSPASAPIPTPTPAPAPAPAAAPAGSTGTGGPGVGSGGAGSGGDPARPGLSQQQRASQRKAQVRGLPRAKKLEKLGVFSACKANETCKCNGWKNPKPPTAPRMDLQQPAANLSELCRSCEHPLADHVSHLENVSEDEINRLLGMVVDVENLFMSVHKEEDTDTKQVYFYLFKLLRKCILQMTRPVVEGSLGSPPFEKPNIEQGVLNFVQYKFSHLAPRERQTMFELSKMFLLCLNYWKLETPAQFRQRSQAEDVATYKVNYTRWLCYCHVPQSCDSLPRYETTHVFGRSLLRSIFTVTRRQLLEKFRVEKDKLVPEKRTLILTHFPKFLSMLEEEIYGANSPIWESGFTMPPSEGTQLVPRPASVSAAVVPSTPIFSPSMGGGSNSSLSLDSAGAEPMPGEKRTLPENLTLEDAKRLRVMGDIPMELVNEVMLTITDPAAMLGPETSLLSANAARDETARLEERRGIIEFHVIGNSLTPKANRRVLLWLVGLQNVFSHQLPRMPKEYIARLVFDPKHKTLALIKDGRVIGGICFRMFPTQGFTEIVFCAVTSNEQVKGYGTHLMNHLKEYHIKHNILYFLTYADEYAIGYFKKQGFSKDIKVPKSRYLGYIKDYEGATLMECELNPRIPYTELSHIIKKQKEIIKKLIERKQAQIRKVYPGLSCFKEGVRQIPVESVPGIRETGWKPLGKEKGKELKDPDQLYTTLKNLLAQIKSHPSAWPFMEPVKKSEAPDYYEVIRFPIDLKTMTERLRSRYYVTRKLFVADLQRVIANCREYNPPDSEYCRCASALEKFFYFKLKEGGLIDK
MEASURED METRIC: inhibition (%)

[[record]]
compound = "O=C(Cn1sc2ccccc2c1=O)NCc1ccccn1"
system = "UniProt Q92830"
measured_metric = "inhibition"
units_label = "%"
test_result = 84

[[record]]
compound = "Cc1cc(C)c2c(=O)n(CN(C)Cc3ccccc3)sc2n1"
system = "UniProt Q92830"
measured_metric = "inhibition"
units_label = "%"
test_result = 14


A: O=C(O)C(c1ccccc1)n1sc2ccccc2c1=O (configuration not stated)
B: Cc1cc(C)c2c(=O)n(CC(=O)Nc3ccc(Cl)cc3)sc2n1
# input Decide: A or B , by lowest recorded inhibition. Your choice should be expressed through its label.
# output A
(A: 28%, B: 42%)

a: O=C(Cn1sc2cc(F)ccc2c1=O)Nc1nc(-c2ccccc2)cs1
b: O=C(O)CCCn1sc2ccccc2c1=O
# input Of a and b , whose reported inhibition is numerically smaller? Select an item and report its label.
# output a
(a: 21%, b: 38%)

* * *

- SYSTEM: CREB-binding protein (Homo sapiens)
- Sequence (Q92793 2-2442 limits assumed): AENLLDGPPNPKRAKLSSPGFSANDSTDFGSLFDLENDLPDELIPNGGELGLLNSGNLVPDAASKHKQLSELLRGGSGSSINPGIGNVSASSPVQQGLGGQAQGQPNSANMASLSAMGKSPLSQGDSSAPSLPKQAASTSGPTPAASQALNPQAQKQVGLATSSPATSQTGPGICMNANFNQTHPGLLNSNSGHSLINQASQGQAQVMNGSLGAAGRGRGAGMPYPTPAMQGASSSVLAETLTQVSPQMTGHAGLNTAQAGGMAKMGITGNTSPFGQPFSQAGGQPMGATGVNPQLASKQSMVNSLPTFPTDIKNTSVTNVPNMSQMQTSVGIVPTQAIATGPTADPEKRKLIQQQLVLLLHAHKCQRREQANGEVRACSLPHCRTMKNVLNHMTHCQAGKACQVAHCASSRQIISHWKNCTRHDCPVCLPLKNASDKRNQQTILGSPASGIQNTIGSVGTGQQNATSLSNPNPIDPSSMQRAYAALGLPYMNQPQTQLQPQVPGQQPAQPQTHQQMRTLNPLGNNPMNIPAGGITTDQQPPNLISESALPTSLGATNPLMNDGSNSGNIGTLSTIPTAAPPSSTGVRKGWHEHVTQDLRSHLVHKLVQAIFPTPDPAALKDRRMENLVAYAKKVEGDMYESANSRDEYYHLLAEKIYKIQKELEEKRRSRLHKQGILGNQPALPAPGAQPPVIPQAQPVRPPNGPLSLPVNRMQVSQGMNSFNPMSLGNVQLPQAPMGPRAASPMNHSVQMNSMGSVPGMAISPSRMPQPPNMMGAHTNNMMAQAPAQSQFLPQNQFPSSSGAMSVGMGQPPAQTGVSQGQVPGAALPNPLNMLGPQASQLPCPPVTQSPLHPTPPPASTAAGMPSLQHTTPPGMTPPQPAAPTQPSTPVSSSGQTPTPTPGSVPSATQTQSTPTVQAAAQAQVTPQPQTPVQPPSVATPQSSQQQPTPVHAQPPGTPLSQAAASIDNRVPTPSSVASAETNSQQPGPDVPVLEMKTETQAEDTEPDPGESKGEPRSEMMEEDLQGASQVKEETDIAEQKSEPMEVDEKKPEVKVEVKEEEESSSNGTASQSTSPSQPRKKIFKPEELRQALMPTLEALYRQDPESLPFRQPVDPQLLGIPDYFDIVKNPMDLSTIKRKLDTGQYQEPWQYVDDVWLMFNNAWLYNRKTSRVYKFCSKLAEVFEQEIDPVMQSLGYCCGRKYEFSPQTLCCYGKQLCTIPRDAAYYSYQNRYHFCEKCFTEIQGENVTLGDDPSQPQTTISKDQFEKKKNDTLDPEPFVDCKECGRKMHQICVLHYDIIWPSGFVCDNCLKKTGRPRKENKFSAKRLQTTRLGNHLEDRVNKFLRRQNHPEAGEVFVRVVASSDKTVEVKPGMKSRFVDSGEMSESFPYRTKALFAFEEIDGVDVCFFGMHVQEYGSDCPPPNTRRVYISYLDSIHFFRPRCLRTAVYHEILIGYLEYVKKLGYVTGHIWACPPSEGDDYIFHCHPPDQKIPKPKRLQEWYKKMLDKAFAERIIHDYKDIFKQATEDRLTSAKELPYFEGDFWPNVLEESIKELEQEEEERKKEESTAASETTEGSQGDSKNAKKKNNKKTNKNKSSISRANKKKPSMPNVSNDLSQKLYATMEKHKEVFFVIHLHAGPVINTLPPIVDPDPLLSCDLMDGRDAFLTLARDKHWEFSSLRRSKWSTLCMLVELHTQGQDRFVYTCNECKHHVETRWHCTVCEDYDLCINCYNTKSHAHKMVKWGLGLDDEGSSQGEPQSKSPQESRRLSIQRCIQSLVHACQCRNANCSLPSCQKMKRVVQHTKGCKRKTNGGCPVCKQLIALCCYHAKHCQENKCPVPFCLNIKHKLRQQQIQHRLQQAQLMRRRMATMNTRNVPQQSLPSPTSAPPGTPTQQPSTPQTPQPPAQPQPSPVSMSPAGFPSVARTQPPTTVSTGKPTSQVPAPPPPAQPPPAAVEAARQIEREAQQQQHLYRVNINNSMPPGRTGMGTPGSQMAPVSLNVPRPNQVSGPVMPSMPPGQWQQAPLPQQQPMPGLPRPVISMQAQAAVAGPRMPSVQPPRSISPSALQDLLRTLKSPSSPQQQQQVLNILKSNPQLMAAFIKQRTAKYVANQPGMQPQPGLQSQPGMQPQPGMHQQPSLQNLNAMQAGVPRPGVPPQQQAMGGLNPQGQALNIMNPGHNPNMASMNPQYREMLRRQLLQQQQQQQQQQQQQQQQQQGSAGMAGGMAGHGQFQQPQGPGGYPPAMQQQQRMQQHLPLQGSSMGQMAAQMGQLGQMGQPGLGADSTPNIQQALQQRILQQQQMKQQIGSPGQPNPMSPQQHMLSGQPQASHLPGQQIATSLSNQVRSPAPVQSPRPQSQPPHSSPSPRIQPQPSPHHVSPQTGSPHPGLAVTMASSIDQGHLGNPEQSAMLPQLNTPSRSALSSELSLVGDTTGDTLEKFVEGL
- EXPERIMENTAL PROTOCOL: Inhibition of recombinant human CBP using biotinylated histone H3 (1 to 21 amino acid residues) as substrate at 50 uM preincubated for 10 mins followed by acetyl-CoA addition measured after 10 mins by time resolved fluorescence assay
MEASURED METRIC: inhibition (%)

[[record]]
record_smiles = "O=c1c2cccnc2sn1Cc1ccc(Cl)c(Cl)c1"
measured_metric = "inhibition"
test_result = 96

[[record]]
record_smiles = "O=C(Cn1sc2cc(F)ccc2c1=O)Nc1nc(-c2ccccc2)cs1"
measured_metric = "inhibition"
test_result = 99

[[record]]
record_smiles = "O=c1c2cccnc2sn1Cc1ccc(Cl)cc1"
measured_metric = "inhibition"
test_result = 96

[[record]]
record_smiles = "CCNC(=O)OCCn1sc2nc(C)cc(C)c2c1=O"
measured_metric = "inhibition"
test_result = 98

[[record]]
record_smiles = "O=c1c2cccnc2sn1-c1ccc(Cl)cc1"
measured_metric = "inhibition"
test_result = 88

[[record]]
record_smiles = "Cc1cc(C)c2c(=O)n(CC(=O)Nc3ccc(Cl)cc3)sc2n1"
measured_metric = "inhibition"
test_result = 96

[[record]]
record_smiles = "O=c1c2cccnc2sn1Cc1ccc(C(F)(F)F)cc1"
measured_metric = "inhibition"
test_result = 96

[[record]]
record_smiles = "O=c1c2cccnc2sn1-c1ccc(F)cc1"
measured_metric = "inhibition"
test_result = 96

[[record]]
record_smiles = "Cc1cc(C)c2c(=O)n(CN(C)Cc3ccccc3)sc2n1"
measured_metric = "inhibition"
test_result = 99


* * *

- System: HL-60
- EXPERIMENTAL PROTOCOL: Cytotoxicity against human HL60 cells assessed as growth inhibition after 72 hrs by MTS assay
- Type: functional
- ASSAY SETUP: HL-60, 72 h
MEASURED METRIC: GI50 (µM)
# unit: µM | format: bare number

Some entries whose results are on file:
[[record]]
record_smiles = "O=c1c2cccnc2sn1-c1ccc(F)cc1"
test_result = 3.42

[[record]]
record_smiles = "Cc1cc(C)c2c(=O)n(CC(=O)Nc3ccc(Cl)cc3)sc2n1"
test_result = 5.6

[[record]]
record_smiles = "O=c1c2cccnc2sn1Cc1ccc(C(F)(F)F)cc1"
test_result = 4.12


Switching to the query record.
# input Would you mind telling me what GI50 value was observed for CCNC(=O)OCCn1sc2nc(C)cc(C)c2c1=O ?
# output 6.55

* * *

- SYSTEM: Histone acetyltransferase KAT2A (Homo sapiens)
- EXPERIMENTAL PROTOCOL: Inhibition of recombinant human KAT2A using biotinylated histone H3 (1 to 21 amino acid residues) as substrate at 50 uM preincubated for 10 mins followed by acetyl-CoA addition measured after 10 mins by time resolved fluorescence assay
MEASURED METRIC: inhibition (%)

[[record]]
record_smiles = "O=c1c2ccccc2sn1-c1nc2ccccc2s1"
test_result = 66


a: Cc1csc(-n2sc3ccccc3c2=O)n1
b: O=c1c2cccnc2sn1Cc1ccc(Cl)cc1
# input Input pair: a , b . Output: entry with lower inhibition. When you have decided, please share the label of that item.
# output b

Reference source for all entries: ChEMBL document CHEMBL3621044
